Each entry below lists one item and its recorded activity, negative = inhibition value.
- experiment: Stat Signaling Pathway (AID 446);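 further: ME-180 cervical cancer cells given 40 pM IL-6 alongside compound; SIE-controlled beta-lactamase reporter measured as 460/530 nm FRET emission ratio; on the % scale 0 is the no-effect control and ±100 the full control effect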
- run-conditions: ME-180 (cervical carcinoma) SIE beta-lactamase reporter, IL-6 stimulated, 5 h; at 7.69 µM (top of the series) unless noted
Inconclusive results are not listed. Activity calls are given as the source filed them. The call rests on the fitted dose curve; in most records, active means well fitted curve in either direction with a large enough effect (not every such curve was filed as active); inconclusive means small, poorly fitted or top-dose-only effect, or another doubt; inactive means flat fitted curve, though single readings scatter.

Worked cases, answers included:
CNc1nc(-c2cccc(C#N)c2)nc2ccccc12 6.92% (inactive)
Cc1ccccc1-c1cc(N2CCNCC2)ncn1 8.55% (inactive)
CC(=O)N1CCC2(CCCN(Cc3ccccc3)C2)CC1 9.01% (inactive)
COCCn1c(=O)c(CCc2ccccc2)nc2cnc(Oc3ccc(OC)cc3)nc21 -17% (inactive)
O=C(Nc1cccc(F)c1)N1CCCC2(CCN(C(=O)c3ccco3)CC2)C1 0.264% (inactive)
COc1ncc2nc(CCc3ccccc3)c(=O)n(CCC#N)c2n1 -4.61% (inactive)
C[C@@H](C[N+](C)(C)C)OC(N)=O -3.42% [at 17.2 µM] (inactive)
CN(C)C(=O)c1ccc(-c2nc(N(C)C)c3ccccc3n2)cc1 2.64% (inactive)

q: Given the compound `COc1ccc(C(=O)N2CCC[C@@]3(CCN(CC(C)C)C3)C2)cc1` , what is its reported activity, negative = inhibition?
a: -10.6% (inactive)

q: If you can, please state the reported activity, negative = inhibition value of `CC(=O)Oc1ccccc1C(=O)Oc1ccccc1C(=O)O` .
a: 8.87% [at 17.2 µM] (inactive)

q: Which activity, negative = inhibition is reported for this compound? `COc1ccc(Nc2ncc3nc(-c4cccs4)c(=O)n(Cc4cccc(OC)c4)c3n2)cc1`
a: -8.74% (inactive)

q: Query: activity, negative = inhibition; subject: `Cc1cccc(CNc2ccnc(-c3ccccc3C(F)(F)F)n2)c1`
a: 5.48% (inactive)

q: Suppose we examine the compound `COc1ccc(CNc2nc(-c3ccoc3)nc3ccccc23)c(OC)c1` ; what activity, negative = inhibition value has been reported?
a: 6.96% (inactive)

q: Reported activity, negative = inhibition, compound `Cc1cnc(CNc2cc(-c3cccc(C#N)c3)ncn2)cn1` : ____
a: 7.04% (inactive)

q: Which measured activity, negative = inhibition value corresponds to `COc1ccccc1-c1nc(NCc2cccnc2)c2ccccc2n1` ?
a: 12.9% (inactive)

q: Reported activity, negative = inhibition, compound `CC(C)CN1CC2(CCN(C(=O)c3cccc(F)c3)CC2)C1` : ____
a: -19.8% (inactive)

q: Dear colleague, I am looking for the recorded activity, negative = inhibition of the following compound: `N#Cc1cccc(NC(=O)N2CC[C@@]3(CCCN(C(=O)c4cc(C(F)(F)F)cc(C(F)(F)F)c4)C3)C2)c1`
a: -10.2% (inactive)

q: I have this compound here, `Cc1cnc(CNc2ncncc2-c2ccoc2)cn1` , and I need its recorded activity, negative = inhibition.
a: 3.39% (inactive)

q: Endpoint output: activity, negative = inhibition of `COCC(=O)N1CCC2(CC1)CCN(c1ncccn1)CC2` . Value?
a: -0.157% (inactive)
